target: c-Src SH2; experiment: SH2 binding enrichment of the phosphorylated peptide, bacterial display (enrichment ratio); higher = better substrate or ligand; peptides without Tyr show the background
I'd appreciate it if you could supply SH2 binding enrichment values for the items below.
I'd appreciate a reply containing only the number, no unit.

Query: # query: SH2 binding enrichment of entry RQRTAYFSLDT [CDH1_Y68]
Reply: 1.74

Query: Can you check TIMTNYNPNFC [ALK_Y1092_D1091N_YF] next?
Reply: 0.478

Query: Can you check LLKAGYQGVLR [TTPA_Y100_H101Q] next?
Reply: 1.23

Query: Can you check DDERGYRRVRS [GIGYF2_Y268] next?
Reply: 0.656

Query: Can you check LDVGEYCVPRG [BEX1_Y43_A40V] next?
Reply: 0.503

====

system: AncSZ; assay: phosphorylation enrichment, bacterial display (enrichment ratio); higher = better substrate or ligand; peptides without Tyr show the background
OBSERVABLE: phosphorylation enrichment

Query: State its phosphorylation enrichment on AncSZ: QNTGDYCDLYG [PTPN11_Y62_Y63C]
Reply: 2.75

Query: Can you check SVVMPYEPPEV [TP53_Y220_V218M] next?
Reply: 1.27

Query: Can you check PQAVRYIYTID [DCX_Y103_G100A] next?
Reply: 1.12

Query: Can you check FEDTLYTVLHR [UNC13D_Y61_A59T_YF] next?
Reply: 2.45

Query: Can you check MPLTEYLKQIK [CNGB3_Y200_R203Q] next?
Reply: 0.83

Query: Can you check QGIIIYKAAYF [SLC25A4_Y187_R188K] next?
Reply: 1.66

Query: Can you check FGSSSSGGAGG [RPA2_Y14_Y14S_YF] next?
Reply: 0.499

Query: Can you check NPEACYQRLKK [TK2_Y190_T188A] next?
Reply: 0.63

Query: Can you check TVSSDYLHPQY [CCPG1_Y569_F566S] next?
Reply: 1.28

====

target: SHP2-C SH2; assay: SH2 binding enrichment of the phosphorylated peptide, bacterial display (enrichment ratio); higher = better substrate or ligand; peptides without Tyr show the background
I'd appreciate it if you could supply SH2 binding enrichment values for the items below.

Query: # query: SH2 binding enrichment of entry KEIHAYRKLLE [LMNA_Y376_M371K]
Reply: 0.569

Query: Can you check FVTCTYSPALN [TP53_Y126_S121F] next?
Reply: 0.655

Query: Can you check AATTAYSKPKR [MAP3K7_Y405] next?
Reply: 0.712

Query: Can you check GEDEPYSEPFA [APBA1_Y183_YF] next?
Reply: 0.914

Query: Can you check IVEFAYNDKAI [PUM3_Y259_YF] next?
Reply: 0.719

Query: Can you check ADLAKYICENR [ALB_Y287_Q292R] next?
Reply: 0.79

Query: Can you check IHFAIYFLKFS [ARMC9_Y107_L108F_YF] next?
Reply: 1.86

Query: Can you check SVESPYGSVTF [NDRG2_Y47_T45S] next?
Reply: 0.688

Query: Can you check PSPMPYASCQM [FOXL2_Y215] next?
Reply: 0.848

Query: Can you check IGRGSYAKVLL [PRKCZ_Y263] next?
Reply: 11.5

Query: Can you check VSGIPYSQPKQ [NEU1_Y251_G252S] next?
Reply: 0.646

====

biological target: FGFR3 (UniProt P22607); test: phosphorylation enrichment, bacterial display (enrichment ratio); higher = better substrate or ligand; peptides without Tyr show the background
Sequence (P22607 whole entry, looked up): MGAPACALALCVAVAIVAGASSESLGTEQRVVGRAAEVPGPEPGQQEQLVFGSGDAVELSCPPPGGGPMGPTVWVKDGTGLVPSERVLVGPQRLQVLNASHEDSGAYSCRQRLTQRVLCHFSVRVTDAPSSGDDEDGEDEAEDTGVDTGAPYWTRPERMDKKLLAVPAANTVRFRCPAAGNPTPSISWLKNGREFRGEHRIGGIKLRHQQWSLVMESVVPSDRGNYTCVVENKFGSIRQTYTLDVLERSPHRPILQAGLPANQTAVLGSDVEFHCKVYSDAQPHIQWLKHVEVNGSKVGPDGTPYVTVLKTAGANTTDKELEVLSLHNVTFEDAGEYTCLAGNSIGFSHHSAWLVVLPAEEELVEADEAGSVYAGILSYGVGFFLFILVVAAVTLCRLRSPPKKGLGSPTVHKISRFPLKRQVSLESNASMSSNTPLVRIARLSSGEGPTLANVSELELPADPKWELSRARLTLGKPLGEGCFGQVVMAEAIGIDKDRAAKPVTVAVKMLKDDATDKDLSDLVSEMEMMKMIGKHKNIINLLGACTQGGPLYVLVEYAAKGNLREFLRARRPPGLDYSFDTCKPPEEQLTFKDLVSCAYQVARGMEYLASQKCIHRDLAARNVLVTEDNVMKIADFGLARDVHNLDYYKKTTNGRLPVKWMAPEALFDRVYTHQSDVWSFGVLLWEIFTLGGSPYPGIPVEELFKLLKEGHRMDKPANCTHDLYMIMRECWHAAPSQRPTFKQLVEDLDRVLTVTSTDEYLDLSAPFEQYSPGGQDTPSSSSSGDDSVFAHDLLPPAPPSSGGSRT
OBSERVABLE: phosphorylation enrichment
I'd appreciate a reply containing only the number, no unit.

Query: State its phosphorylation enrichment on FGFR3 (UniProt P22607): VAMELYVFRGV [GAN_Y471_G474R]
Reply: 0.807

Query: Can you check PEIIAYQPFGK [PRKCG_Y529_YF] next?
Reply: 0.796

Query: Can you check FPDFVYKCIKA [DPYSL2_Y479_R481C] next?
Reply: 0.788

Query: Can you check MYVKSYTIHYS [F5_Y2153] next?
Reply: 0.815

Query: Can you check GCKNRYDEDKP [THAP1_Y14_K16E] next?
Reply: 0.722

Query: Can you check LAAPKYKLNVD [SMARCA2_Y1190_A1188P] next?
Reply: 0.518

Query: Can you check GCVRMYELVHR [GLE1_Y135] next?
Reply: 0.71

Query: Can you check GVTLLCYGRYN [ADGRD1_Y85_Y85C] next?
Reply: 0.908

Query: Can you check ETKKQYNSFTY [TMED3_Y85_D86N] next?
Reply: 0.455

Query: Can you check FSPGSNERETF [NF1_Y2192_Y2192N] next?
Reply: 0.583

Query: Can you check GDPVQYNRTTD [MLPH_Y454] next?
Reply: 0.7

Query: Can you check NELTFYCFKKD [CD59_Y87_C89Y_YF] next?
Reply: 0.614

Query: Can you check LLKANYELLNA [POLR3A_Y714_K713N] next?
Reply: 0.78

Query: Can you check NPEACYQRLKK [TK2_Y190_T188A] next?
Reply: 0.471

====

molecular target: MERTK (UniProt Q12866); assay: phosphorylation enrichment, bacterial display (enrichment ratio); higher = better substrate or ligand; peptides without Tyr show the background
Sequence (Q12866 whole entry, looked up): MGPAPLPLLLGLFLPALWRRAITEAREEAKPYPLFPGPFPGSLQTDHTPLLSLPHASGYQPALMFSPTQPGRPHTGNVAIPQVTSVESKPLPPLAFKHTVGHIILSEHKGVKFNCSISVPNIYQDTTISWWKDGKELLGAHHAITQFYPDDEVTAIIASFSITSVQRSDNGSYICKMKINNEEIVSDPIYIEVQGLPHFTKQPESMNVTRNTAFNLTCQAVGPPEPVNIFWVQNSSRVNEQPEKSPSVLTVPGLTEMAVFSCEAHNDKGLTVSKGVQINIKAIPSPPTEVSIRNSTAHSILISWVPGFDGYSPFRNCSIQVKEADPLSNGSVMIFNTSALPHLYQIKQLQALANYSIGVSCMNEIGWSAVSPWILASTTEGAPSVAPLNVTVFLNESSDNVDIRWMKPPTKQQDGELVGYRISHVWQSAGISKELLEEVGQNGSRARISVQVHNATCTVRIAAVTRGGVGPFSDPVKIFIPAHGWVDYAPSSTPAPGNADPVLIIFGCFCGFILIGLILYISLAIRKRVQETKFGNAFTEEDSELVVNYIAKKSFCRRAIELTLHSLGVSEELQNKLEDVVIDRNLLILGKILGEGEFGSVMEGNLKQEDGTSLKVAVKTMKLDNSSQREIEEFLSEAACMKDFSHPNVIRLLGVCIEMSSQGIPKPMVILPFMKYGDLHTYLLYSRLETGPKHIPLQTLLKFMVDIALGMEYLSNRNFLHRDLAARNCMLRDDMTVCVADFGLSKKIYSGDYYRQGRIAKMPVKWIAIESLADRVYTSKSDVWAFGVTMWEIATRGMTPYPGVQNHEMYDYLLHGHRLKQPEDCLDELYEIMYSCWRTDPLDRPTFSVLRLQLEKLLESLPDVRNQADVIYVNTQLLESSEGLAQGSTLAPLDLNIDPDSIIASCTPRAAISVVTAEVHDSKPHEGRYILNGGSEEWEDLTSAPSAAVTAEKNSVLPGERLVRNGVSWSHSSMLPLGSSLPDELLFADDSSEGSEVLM
I'd appreciate it if you could supply phosphorylation enrichment values for the items below.
I'd appreciate a reply containing only the number, no unit.

Query: # query: phosphorylation enrichment of entry ETAENYLGHTA [HSPA9_Y181]
Reply: 0.503

Query: Can you check TDISLYPSGGT [TENM4_Y399_V396I] next?
Reply: 0.394

Query: Can you check MEVEQYIFVKC [CYBB_Y324_G322E] next?
Reply: 0.509

Query: Can you check ANFTEYVATRW [CDKL5_Y171_YF] next?
Reply: 0.49

Query: Can you check QPGTDYKIYLY [FN1_Y1970] next?
Reply: 0.501

Query: Can you check CTTIHSNFMCN [TP53_Y234_Y234S_YF] next?
Reply: 0.405

Query: Can you check MHDKEYYSVHN [MET_Y1234_Y1230H] next?
Reply: 0.496

Query: Can you check WQQQSYLDSVI [CTNNB1_Y30_G34V] next?
Reply: 0.406

Query: Can you check TDGIAYEFRVT next?
Reply: 0.403

Query: Can you check NKPTVYGVSPN [ABL1_Y226] next?
Reply: 0.395

Query: Can you check SSVKLYRVFCD [FGB_Y266_P265L_YF] next?
Reply: 0.41

Query: Can you check GGQVFHNSEFG [FLT4_Y1333_Y1333H_YF] next?
Reply: 0.395

Query: Can you check RGEEPYTKKAL [TTC21B_Y160_K157E] next?
Reply: 0.491

====

test system: AncSZ; experiment: phosphorylation enrichment, bacterial display (enrichment ratio); higher = better substrate or ligand; peptides without Tyr show the background
I'd appreciate it if you could supply phosphorylation enrichment values for the items below.
I'd appreciate a reply containing only the number, no unit.

Query: # query: phosphorylation enrichment of entry FGIAQYCCRMG [LRRK2_Y2023_YF]
Reply: 0.908

Query: Can you check TVDASYCGGRG [ANTXR2_Y380_Y381C] next?
Reply: 0.558

Query: Can you check APRKVYDTQDD [ZFPL1_Y215_R218Q] next?
Reply: 0.993

Query: Can you check LPPGTYPSDFT [UNC5B_Y511_A516T] next?
Reply: 1.58

Query: Can you check SVVVPYAPPEV [TP53_Y220_E221A] next?
Reply: 0.756

Query: Can you check RVDRDYVLKST [HTATIP2_Y111_A116T] next?
Reply: 0.961

Query: Can you check NNDLCYWVPEL [IARS1_Y434] next?
Reply: 2.86

Query: Can you check DSASAYADEVK [ETNPPL_Y189] next?
Reply: 1.28

Query: Can you check IFETDYFQKGG [INSR_Y1189_R1191Q_YF] next?
Reply: 1.24

Query: Can you check RLLVVYPWTRR [HBB_Y36_Q40R] next?
Reply: 0.683

Query: Can you check HSFQCYGRNEA [ENTPD3_Y262] next?
Reply: 1.23

Query: Can you check YQKDVYDIPPS [NEDD9_Y177] next?
Reply: 0.954

Query: Can you check LDYNEYFRNLN [HPRT1_Y198_D201N] next?
Reply: 2.08

Query: Can you check GREEFYVHFVG [KAT8_Y90_YF] next?
Reply: 1.23

Query: Can you check ANFTEYVATRW [CDKL5_Y171_YF] next?
Reply: 0.977

Query: Can you check TLSGTYQFIIA [FOXL2_Y81_I80T_YF] next?
Reply: 1.27

Query: Can you check KRGIDYILRHM [FRMD1_Y225] next?
Reply: 0.792

Query: Can you check ITKQEYDEAGP [ACTA1_Y364] next?
Reply: 1.14

Query: Can you check DPEGAYTTRGG [EPHA3_Y779_A777G] next?
Reply: 0.896

Query: Can you check TKQLTYEEQFL [PIK3C3_Y310_D314Y_YF] next?
Reply: 1.1
